Source of measurements: patent US20250250357A1

Target: T1, human MSLN-R2-his protein (human, UniProt Q13421 391-486)
T1 construct: also called human MSLN-R2 protein; hMSLN-R2-his; not shown: His tag
T1 sequence (Q13421 other isoform, or with tags, fused parts or gaps): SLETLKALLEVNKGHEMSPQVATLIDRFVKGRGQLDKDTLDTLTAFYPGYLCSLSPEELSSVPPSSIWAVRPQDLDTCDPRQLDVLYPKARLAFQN
Assay: ELISA, coated antigen; antibody 10 nM
Some binders, each annotated with its measured OD450.

{"binder": "S009-F3.7.3 (antibody, human IgG1, kappa, V domains shown, Human-murine chimeric antibody: murine VH/VL on human IgG1 heavy chain constant region and human kappa constant region) VH: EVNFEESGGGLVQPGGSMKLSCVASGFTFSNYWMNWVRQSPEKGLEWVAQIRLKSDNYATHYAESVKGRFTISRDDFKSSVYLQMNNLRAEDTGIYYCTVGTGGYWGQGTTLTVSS VL: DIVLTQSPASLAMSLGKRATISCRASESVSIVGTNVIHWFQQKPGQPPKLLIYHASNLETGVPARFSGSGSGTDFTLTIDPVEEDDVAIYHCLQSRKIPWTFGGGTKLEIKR", "OD450": "0.09 OD450"}
{"binder": "S009-F3.80.22 (antibody, human IgG1, kappa, V domains shown, Human-murine chimeric antibody, human IgG1/kappa constant regions) VH: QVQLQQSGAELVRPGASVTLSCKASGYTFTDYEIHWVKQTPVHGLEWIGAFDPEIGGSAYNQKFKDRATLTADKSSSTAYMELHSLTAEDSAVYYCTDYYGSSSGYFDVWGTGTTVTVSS VL: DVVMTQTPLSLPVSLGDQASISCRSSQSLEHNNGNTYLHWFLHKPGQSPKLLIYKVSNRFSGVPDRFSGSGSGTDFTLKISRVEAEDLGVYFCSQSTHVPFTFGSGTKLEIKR", "OD450": "0.17 OD450"}
{"binder": "S009-F3.74.20 (antibody, human IgG1, kappa, V domains shown, Human-murine chimeric antibody, human IgG1/kappa constant regions) VH: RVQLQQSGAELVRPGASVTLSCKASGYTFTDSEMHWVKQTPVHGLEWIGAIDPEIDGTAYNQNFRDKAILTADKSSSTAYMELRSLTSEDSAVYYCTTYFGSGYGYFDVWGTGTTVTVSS VL: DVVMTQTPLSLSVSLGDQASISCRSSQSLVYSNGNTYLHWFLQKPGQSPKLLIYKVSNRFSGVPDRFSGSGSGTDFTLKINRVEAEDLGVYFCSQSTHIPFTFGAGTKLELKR", "OD450": "0.17 OD450"}

Continue with the next binder.
Input line: Reported OD450 for S009-F3.38.10 (antibody, human IgG1, kappa, V domains shown, Human-murine chimeric antibody, human IgG1/kappa constant regions) VH: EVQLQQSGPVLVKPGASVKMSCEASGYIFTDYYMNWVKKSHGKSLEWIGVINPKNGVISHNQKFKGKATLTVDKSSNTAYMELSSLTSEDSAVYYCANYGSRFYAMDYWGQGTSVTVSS VL: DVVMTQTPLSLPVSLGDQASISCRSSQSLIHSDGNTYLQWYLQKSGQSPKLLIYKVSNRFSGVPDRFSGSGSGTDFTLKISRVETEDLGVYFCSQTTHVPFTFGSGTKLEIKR : what is it?
Output line: 0.18 OD450
